Where a name gives a salt, the structure may show the parent alone.
Listed compounds paired with reported melting point

A selection of reference data follows.
CCc1nc(N)nc(N)c1OCc1coc(-c2ccccc2)n1 (as salt: hydrochloride): 231 to 232 °C
CCc1nc(N)nc(N)c1OCc1csc(-c2cccc(OCC(=O)O)c2)n1 (as salt: hydrochloride) (hydrate or solvate): 191 to 193 °C
CCc1nc(N)nc(N)c1OCc1csc(-c2cccc([N+](=O)[O-])c2)n1 (as salt: hydrochloride): 235 to 236.5 °C
CCc1nc(N)nc(N)c1OCc1cc(-c2cccc(C(=O)O)c2)no1 (as salt: hydrochloride): 192 to 194 °C

Attention now turns to another entry.
Kindly note the recorded melting point for CCc1nc(N)nc(N)c1OCc1csc(-c2cccc(C(=O)OC)c2)n1 (as salt: hydrochloride) , which is 224.5 to 226.5 °C

----------
- test_target: wild type (WT) pfDHFR (Plasmodium falciparum, UniProt P13922, N108S/R59C)
- Sequence (P13922 whole entry R59C/N108S): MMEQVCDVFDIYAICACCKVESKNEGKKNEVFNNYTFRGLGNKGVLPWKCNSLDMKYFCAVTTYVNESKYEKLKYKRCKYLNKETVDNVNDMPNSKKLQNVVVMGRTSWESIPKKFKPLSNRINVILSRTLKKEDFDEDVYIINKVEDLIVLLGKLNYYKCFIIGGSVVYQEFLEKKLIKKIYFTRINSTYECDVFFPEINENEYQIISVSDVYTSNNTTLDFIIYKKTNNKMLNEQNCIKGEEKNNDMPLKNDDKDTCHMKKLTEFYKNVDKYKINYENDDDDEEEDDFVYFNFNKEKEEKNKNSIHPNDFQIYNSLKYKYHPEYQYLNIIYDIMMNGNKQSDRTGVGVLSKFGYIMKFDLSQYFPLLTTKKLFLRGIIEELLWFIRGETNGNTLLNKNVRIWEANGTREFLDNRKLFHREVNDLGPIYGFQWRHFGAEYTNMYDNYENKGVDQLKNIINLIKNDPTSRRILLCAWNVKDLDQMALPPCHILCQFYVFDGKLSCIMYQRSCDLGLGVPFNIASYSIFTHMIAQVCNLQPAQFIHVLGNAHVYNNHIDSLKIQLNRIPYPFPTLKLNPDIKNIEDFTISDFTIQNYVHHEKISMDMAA
- test_name: Inhibition of wild type pfDHFR (Ki)
Lab note - cut at 1000 pM for Ki: y if strictly below, n if not.

CCc1nc(N)nc(N)c1OCc1csc(-c2ccc(Br)cc2)n1: y

Please turn your attention to the following entry.
query: API: query returns whether the compound falls strictly under 1000 pM in Ki. Query: CCc1nc(N)nc(N)c1OCc1cc(-c2ccc(C(F)(F)F)cc2)no1
result: n

----------
Listed compounds paired with reported pIC50
- test_name: in vitro
- condition_set: African green monkey
pIC50: −log10 of the molar value.

CCc1nc(N)nc(N)c1OCc1cc(-c2ccc(OC)cc2)no1: < 4.60
CCc1nc(N)nc(N)c1OCCCc1cc(-c2ccc(Cl)cc2)no1: < 4.30
CCc1nc(N)nc(N)c1-c1cn(CCCOc2ccc(C(=O)OC)cc2)nn1: 4.32
CCc1nc(N)nc(N)c1OCc1coc(-c2ccc(OCC(=O)O)cc2)n1: < 4.30
CCc1nc(N)nc(N)c1-c1cn(Cc2ccc(C(=O)OC)cc2)nn1: < 4.60

Kindly note the recorded pIC50 for CCc1nc(N)nc(N)c1OCc1csc(-c2ccc(OC)cc2)n1 , which is 4.36

Kindly note the recorded pIC50 for CCc1nc(N)nc(N)c1-c1cn(CCCOc2ccc(Cl)cc2)nn1 , which is 4.31

Kindly note the recorded pIC50 for CCc1nc(N)nc(N)c1OCCCc1cc(-c2cccc(C(=O)OC)c2)no1 , which is 6.12

Kindly note the recorded pIC50 for CCc1nc(N)nc(N)c1OCc1csc(-c2cccc([N+](=O)[O-])c2)n1 , which is 4.75

Kindly note the recorded pIC50 for CCc1nc(N)nc(N)c1OCCc1cn(-c2ccc(C(=O)O)cc2)nn1 , which is < 4.30

Kindly note the recorded pIC50 for CCc1nc(N)nc(N)c1-c1cn(CCOc2ccc(Cl)cc2)nn1 , which is 4.32

Kindly note the recorded pIC50 for CCc1nc(N)nc(N)c1OCc1cc(-c2ccccc2)no1 , which is < 4.60

Kindly note the recorded pIC50 for CCc1nc(N)nc(N)c1OCCc1cn(-c2ccc(C(=O)OC)cc2)nn1 , which is < 4.60

----------
- test_target: wild type (WT) pfDHFR (Plasmodium falciparum, UniProt P13922, N108S/R59C)
- test_name: Inhibition of wild type pfDHFR (Ki)
observable: Ki (nM)
Quick reminder: number only, in nM, skip the unit.

CCc1nc(N)nc(N)c1OCc1csc(-c2ccccc2)n1 [Compound 60]: 1.02
CCc1nc(N)nc(N)c1-c1cn(CCOc2ccc(C(=O)OC)cc2)nn1 [Compound 10]: 1.01
CCc1nc(N)nc(N)c1OCc1csc(-c2cccc(C(=O)OC)c2)n1 [Compound 65]: 0.51
CCc1nc(N)nc(N)c1OCCCc1cn(Cc2ccc(C(=O)O)cc2)nn1 [Compound 32]: 0.36
CCc1nc(N)nc(N)c1-c1cn(CCCOc2ccc(C(=O)OC)cc2)nn1 [Compound 12]: 0.82
CCc1nc(N)nc(N)c1OCCc1csc(-c2ccccc2)n1 [Compound 76]: 0.94
CCc1nc(N)nc(N)c1OCc1cc(-c2cccc(C(F)(F)F)c2)no1 [Compound 37]: 2.12
CCc1nc(N)nc(N)c1OCCc1coc(-c2ccccc2)n1 [Compound 58]: 0.55

Kindly note the recorded Ki for CCc1nc(N)nc(N)c1OCc1cc(-c2ccc([N+](=O)[O-])cc2)no1 [Compound 43] , which is 4.02

Kindly note the recorded Ki for CCc1nc(N)nc(N)c1OCc1csc(-c2ccc(OCC(=O)OCc3ccccc3)cc2)n1 [Compound 72] , which is 0.8

Kindly note the recorded Ki for CCc1nc(N)nc(N)c1OCc1cn(Cc2cccc(C(=O)O)c2)nn1 [Compound 26] , which is 19.5

Provenance of the data: patent US11028072B2
